These entries and their values trace back to ChEMBL document CHEMBL3297697.

Parameter: log10 of solubility kinetic at 24 h, 10000 µM. Scope: all listed entries.
- Assay Info: physchem
- Run Conditions: PBS buffer, pH 7.4, Kinetic_solubility
Remember, log10 of solubility kinetic at 24 h, 10000 µM, in µM.

Sample records with log10 of solubility kinetic at 24 h, 10000 µM:
Cc1cccc([C@H](CCN(C)C)n2cc(NC(=O)c3n[nH]c4c3CCC(C)(C)C4)cn2)c1 ... 1.86
CC1(C)CCc2c(C(=O)Nc3cnn([C@@H](CCS(C)(=O)=O)c4ccccc4)c3)n[nH]c2C1 ... 1.15
CC12Cc3[nH]nc(C(=O)Nc4cnn(Cc5ccccc5)c4)c3CC1C2 (racemic) ... 0.11
O=C(Nc1cnn(Cc2ccccc2)c1)c1n[nH]c2c1CCC1(COC1)C2 ... 1.89

Kindly review the next molecule as well.
Incoming: Item under review: O=C(Nc1cnn(Cc2ccccc2)c1)c1n[nH]c2c1CC1CC1C2 (racemic) . Reported log10 of solubility kinetic at 24 h, 10000 µM?
Outgoing: 1.11
